Hey, just so you know, these numbers are from PubChem BioAssay (NCI).

# EXPERIMENT DESCRIPTION: NCI Yeast Anticancer Drug Screen. Data for the bub3 strain (AID 167)
# CONDITION CONTEXT: S. cerevisiae bub3 mutant strain, at 50.0 µM (retest, dose inferred, filed as 5.0), active compounds read high
The panel holds about 79,000 compounds, 15% with a hit somewhere; the sample as a whole holds those more often.
Decision: growth inhibition compared against 40%; not below it gives true, below it gives false.

COMPOUND: CC(CO)[C@H]1OC(=O)C=C2[C@@]13O[C@@H]3[C@H]1OC(=O)[C@@]3(C)[C@H]4O[C@H]4C[C@@]2(C)[C@@H]13 (stereo partly specified)
ASSIGNED CATEGORY: true
//
COMPOUND: S=c1nc(N2CCCCC2)ss1
ASSIGNED CATEGORY: true
//
COMPOUND: O=C(NNS(=O)(=O)c1ccccc1)Nc1ccccc1
ASSIGNED CATEGORY: false
//
COMPOUND: ON=C1c2ccccc2-c2ccccc21
ASSIGNED CATEGORY: false
//
COMPOUND: N#CSc1cc(SC#N)c2ccccc2c1N
ASSIGNED CATEGORY: false
//
COMPOUND: CCOC(=O)c1cc2c(nc1N)/C(=C/c1ccccc1)CCCC2
ASSIGNED CATEGORY: true
//
COMPOUND: CCOC(=O)C(C(=O)OCC)C1(c2ccccc2)OC(=O)c2ccccc21 (stereo unspecified)
ASSIGNED CATEGORY: false
//
COMPOUND: CCCCCC=C(c1cc(Br)cc(C(=O)O)c1O)c1cc(Br)cc(C(=O)O)c1O
ASSIGNED CATEGORY: true
//
COMPOUND: CC(C)OC(=O)c1cc([N+](=O)[O-])cc([N+](=O)[O-])c1Sc1ncnc2nc[nH]c12
ASSIGNED CATEGORY: true
//
COMPOUND: O=Cc1ccc(O)c2ccccc12
ASSIGNED CATEGORY: true

* * *

# EXPERIMENT DESCRIPTION: NCI Yeast Anticancer Drug Screen. Data for the mlh1 rad18 strain (AID 175)
# CONDITION CONTEXT: S. cerevisiae mlh1 rad18 strain growth inhibition; at 50.0 µM (retest, dose inferred, filed as 5.0)
About 79,000 compounds went through this panel and 15% of them were active in at least one assay; those are over-represented in the sample as a whole. The source made the active and inactive calls. No stated cut-off is given here; in the data, active means growth inhibition above about 70%; inactive means the rest.
Classes used: label 1 for active, label 0 for inactive

COMPOUND: COC/C(Br)=C\SC#N (tested in a mixture with another compound)
ASSIGNED CATEGORY: label 0
//
COMPOUND: CCCCCCn1c(SCC)c2ccccc2c1-c1nc(F)nc(F)n1
ASSIGNED CATEGORY: label 0
//
COMPOUND: CC(=O)Nc1ccc(-c2cnc3ccccc3c2)cc1
ASSIGNED CATEGORY: label 0
//
COMPOUND: Cc1cc2cc3c(c(C(=O)O)c2o1)C(=O)c1ccc2ccccc2c1C3
ASSIGNED CATEGORY: label 1
//
COMPOUND: Clc1ccccc1CN1COc2c(ccc3cccnc23)C1
ASSIGNED CATEGORY: label 1
//
COMPOUND: COc1ccccc1/C=C\C(=O)c1ccccc1
ASSIGNED CATEGORY: label 1
//
COMPOUND: CC(C)C(=O)NNc1ccccc1
ASSIGNED CATEGORY: label 1
//
COMPOUND: NC(=O)c1nnn(Cc2cc(Cl)c(C(=O)c3ccc(Cl)cc3)c(Cl)c2)c1N
ASSIGNED CATEGORY: label 1
//
COMPOUND: CCCCCCCCCCCCCCOC(=O)C(N)Cc1ccc(O)cc1 (centres undefined)
ASSIGNED CATEGORY: label 1
//
COMPOUND: COc1ccc(C2C3=C(CCC(CN(C)C)C3=O)OC3=C2C(=O)C(CN(C)C)CC3)cc1 (centres undefined)
ASSIGNED CATEGORY: label 0
//
COMPOUND: O=C1c2ccccc2C(=O)c2sc(Nc3cccc(Cl)c3)nc21
ASSIGNED CATEGORY: label 1
//
COMPOUND: COc1ccc(C2COc3cc(O)c(O)cc3C2)cc1 (centres undefined)
ASSIGNED CATEGORY: label 1
//
COMPOUND: O=C(Nc1ccccc1)OCCc1ccc(Br)cc1
ASSIGNED CATEGORY: label 0
//
COMPOUND: N=C(N)c1ccc2oc3ccc(C(=N)N)cc3c(=O)c2c1
ASSIGNED CATEGORY: label 1
//
COMPOUND: CNC(Cc1ccccc1)c1ccc(OC)c2ccccc12 (centres undefined)
ASSIGNED CATEGORY: label 0
//
COMPOUND: Oc1ccccc1/C=N/NC(=S)NC12CC3CC(CC(C3)C1)C2
ASSIGNED CATEGORY: label 0
//
COMPOUND: Cc1cc(N)c2ccccc2[n+]1CCCCCCCCCC[n+]1c(C)cc(N)c2ccccc21
ASSIGNED CATEGORY: label 1
//
COMPOUND: CCN(CC)Cc1c(-c2ccccc2)oc(-c2ccccc2)c1CN(CC)CC
ASSIGNED CATEGORY: label 0
//
COMPOUND: c1ccc(CCc2c[nH]c3ccccc23)cc1
ASSIGNED CATEGORY: label 0
//
COMPOUND: CC(CCNCCC#N)CC(C)(C)C (centres undefined)
ASSIGNED CATEGORY: label 0
//
COMPOUND: CCN(CC)CCCNc1nccc2c(C)c3[nH]c4ccncc4c3cc12
ASSIGNED CATEGORY: label 0
//
COMPOUND: O=C(O)c1ccc2c(c1)CC1(C2)Cc2cc3c(cc2C1=O)CCC3 (centres undefined)
ASSIGNED CATEGORY: label 0
//
COMPOUND: Cc1ccc(C)c(NC(=O)CCC(=O)C(C#N)c2cccc3ccccc23)c1 (centres undefined)
ASSIGNED CATEGORY: label 0
//
COMPOUND: CCOC1=C(NC(C)=O)C(=O)c2ccccc2C1=O
ASSIGNED CATEGORY: label 1

* * *

Each entry below lists one item and its recorded growth inhibition value.
# EXPERIMENT DESCRIPTION: NCI Yeast Anticancer Drug Screen. Data for the cln2 rad14 strain (AID 165);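 note: 0% = growth equal to vehicle treated cultures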
# CONDITION CONTEXT: S. cerevisiae cln2 rad14 strain, at 50.0 µM (retest, dose inferred, filed as 5.0), active compounds read high
The panel holds about 79,000 compounds, 15% with a hit somewhere; the sample as a whole holds those more often.

COMPOUND: C=CC(=O)NC(=O)Nc1ccc(Cl)cc1
growth inhibition / %: 98
--
COMPOUND: Cc1ccc(/C=C2\CCCc3ccccc3C2=O)cc1
growth inhibition / %: -11
--
COMPOUND: Cc1ccccc1N1CCN(c2c3c(nc4ccccc24)CCCCC3)CC1
growth inhibition / %: 95
--
COMPOUND: CCCCCCC(=O)OCc1ccc(-c2ccccc2)cc1
growth inhibition / %: 94
--
COMPOUND: Cc1cc(C)nc(/C=C/c2ccc(/C=C/c3cc(C)cc(C)n3)cc2)c1
growth inhibition / %: -11
--
COMPOUND: COc1ccc(C(C#N)=C2C=CC(=NOC(=O)Nc3ccccc3)C=C2)cc1
growth inhibition / %: 91
--
COMPOUND: CCOC(=O)c1c(C)[nH]c(CO)c1C
growth inhibition / %: 0
--
COMPOUND: CN(C)CC1Cc2ccsc2C1=O (centres undefined)
growth inhibition / %: 76
--
COMPOUND: O=C1OC2(Cc3ccccc31)c1ccccc1-c1ccccc12
growth inhibition / %: -15
--
COMPOUND: N#CC1C(=O)SC2c3ccccc3C(=O)c3ccccc3C12 (centres undefined)
growth inhibition / %: 36
--
COMPOUND: Cc1c(Cl)cccc1N=NC(=O)NNc1cccc(Cl)c1C
growth inhibition / %: 97
--
COMPOUND: CCOC(=O)CCC(NC(=O)c1ccc(NC(OC)c2nc3cc(C(F)(F)F)ccc3nc2-c2ccccc2)cc1)C(=O)OCC (centres undefined)
growth inhibition / %: 80
--
COMPOUND: Cc1ccccc1[P+](C)(c1ccccc1C)c1ccccc1C
growth inhibition / %: 48
--
COMPOUND: N#CSCc1c(Cl)cccc1Cl
growth inhibition / %: 94
--
COMPOUND: O=CNc1ccc2c(c1)Cc1cc(NC=O)ccc1-2
growth inhibition / %: 10
--
COMPOUND: CS(=O)(=O)c1snc(N)c1C#N
growth inhibition / %: 61
--
COMPOUND: c1ccc(CSc2nnc3c4ccccc4c4ccccc4c3n2)cc1
growth inhibition / %: -12
--
COMPOUND: CCCCCCCN=C(N)c1ccc(C(=O)OCc2ccccc2)cc1
growth inhibition / %: 80
--
COMPOUND: Cc1ccc(N=C(N)NN=C(c2ccc(Cl)cc2)c2ccc(Cl)cc2)cc1
growth inhibition / %: 22
--
COMPOUND: CC[n+]1c(/C=C/c2cc(C(=O)OC)n3c2sc2ccccc23)sc2ccccc21
growth inhibition / %: 99
--
COMPOUND: C[N+](C)=c1ccc2nc3c(cc(NCCCNc4cc5oc6cc(=[N+](C)C)ccc-6nc5c5ccccc45)c4ccccc43)oc-2c1
growth inhibition / %: 53
--
COMPOUND: CC(=O)OC1(C)C(=C(Cl)Cl)C2c3ccccc3C1c1ccccc12 (centres undefined)
growth inhibition / %: 89
--
COMPOUND: O=C(/C=C/c1cccc(Cl)c1)c1ccccc1
growth inhibition / %: 52
--
COMPOUND: CCC1CCC(CC)C1=O (centres undefined)
growth inhibition / %: 3
